target: UniProt P56450; test: In vitro activation of mouse recombinant Melanocortin-4 receptor.
Where a SMILES comes first, the peptide text is derived from it. [ ]: non-standard residue; d: D form. dTic = O=C(O)[C@H]1Cc2ccccc2CN1
observationType: EC50 (nM)

Reference set, count: 3
compound	systemName	unitOfMeasurement	observedValue
CC(=O)N[C@@H](C)C(=O)N[C@H](Cc1ccccc1)C(=O)N[C@@H](CCCN=C(N)N)C(=O)N[C@@H](Cc1c[nH]c2ccccc12)C(N)=O	UniProt P56450	nM	1000
CC(=O)N[C@@H](Cc1ccccc1)C(=O)N[C@H](Cc1ccccc1)C(=O)N[C@@H](CCCNC(=N)N)C(=O)N[C@@H](Cc1c[nH]c2ccccc12)C(N)=O	UniProt P56450	nM	70.6
CC(=O)N[C@H](Cc1ccccc1)C(=O)N[C@H](Cc1ccccc1)C(=O)N[C@@H](CCCNC(=N)N)C(=O)N[C@@H](Cc1c[nH]c2ccccc12)C(N)=O	UniProt P56450	nM	2170

(P) CC(=O)N1Cc2ccccc2C[C@@H]1C(=O)N[C@H](Cc1ccccc1)C(=O)N[C@@H](CCCN=C(N)N)C(=O)N[C@@H](Cc1c[nH]c2ccccc12)C(N)=O (Ac-[dTic][dF]RW-NH2)
(Q) CC(=O)N[C@H](Cc1c[nH]c2ccccc12)C(=O)N[C@H](Cc1ccccc1)C(=O)N[C@@H](CCCNC(=N)N)C(=O)N[C@@H](Cc1c[nH]c2ccccc12)C(N)=O
(R) CC(=O)N1CCC[C@H]1C(=O)N[C@H](Cc1ccccc1)C(=O)N[C@@H](CCCN=C(N)N)C(=O)N[C@@H](Cc1c[nH]c2ccccc12)C(N)=O (Ac-P[dF]RW-NH2)
Please give the order of these compounds when sorted by EC50, largest value leading. Answer by naming the labels in the order asked.
P, Q, R
(P: 11700 nM, Q: 6200 nM, R: 1500 nM)

----------
molecular target: Melanocortin receptor 5 (Mus musculus, UniProt P41149); assay: In vitro activation of mouse recombinant Melanocortin-5 receptor.
Sequence (P41149 whole entry): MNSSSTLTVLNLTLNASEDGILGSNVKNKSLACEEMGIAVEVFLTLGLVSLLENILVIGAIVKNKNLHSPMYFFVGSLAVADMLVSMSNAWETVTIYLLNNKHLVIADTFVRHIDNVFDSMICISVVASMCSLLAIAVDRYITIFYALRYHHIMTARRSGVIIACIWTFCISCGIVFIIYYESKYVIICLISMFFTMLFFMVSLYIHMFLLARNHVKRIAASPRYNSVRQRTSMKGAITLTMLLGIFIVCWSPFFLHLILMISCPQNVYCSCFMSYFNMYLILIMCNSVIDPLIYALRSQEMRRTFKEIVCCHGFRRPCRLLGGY
Where a SMILES comes first, the peptide text is derived from it. [ ]: non-standard residue; d: D form. dTic = O=C(O)[C@H]1Cc2ccccc2CN1
observationType: EC50 (nM)

compound	systemName	observedValue
CC(=O)N[C@@H](Cc1ccccc1)C(=O)N[C@H](Cc1ccccc1)C(=O)N[C@@H](CCCNC(=N)N)C(=O)N[C@@H](Cc1c[nH]c2ccccc12)C(N)=O	Melanocortin receptor 5 (Mus musculus, UniProt P41149)	143

(I) CC(=O)N[C@H](Cc1cnc[nH]1)C(=O)N[C@H](Cc1ccccc1)C(=O)N[C@@H](CCCNC(=N)N)C(=O)N[C@@H](Cc1c[nH]c2ccccc12)C(N)=O
(II) CC(=O)N[C@H](Cc1ccccc1)C(=O)N[C@H](Cc1ccccc1)C(=O)N[C@@H](CCCNC(=N)N)C(=O)N[C@@H](Cc1c[nH]c2ccccc12)C(N)=O
(III) CC(=O)N1Cc2ccccc2C[C@@H]1C(=O)N[C@H](Cc1ccccc1)C(=O)N[C@@H](CCCN=C(N)N)C(=O)N[C@@H](Cc1c[nH]c2ccccc12)C(N)=O (Ac-[dTic][dF]RW-NH2)
(IV) CC(=O)N[C@@H](Cc1c[nH]c2ccccc12)C(=O)N[C@H](Cc1ccccc1)C(=O)N[C@@H](CCCN=C(N)N)C(=O)N[C@@H](Cc1c[nH]c2ccccc12)C(N)=O
(V) CC(=O)N[C@@H](Cc1ccncc1)C(=O)N[C@H](Cc1ccccc1)C(=O)N[C@@H](CCCN=C(N)N)C(=O)N[C@@H](Cc1c[nH]c2ccccc12)C(N)=O
Please list these in order of increasing EC50. Thank you! Note for the reader: the ranking is given by listing the labels in the order requested.
V, I, IV, II, III
(V: 92.5 nM, I: 138 nM, IV: 507 nM, II: 2980 nM, III: 12000 nM)

----------
biological target: Melanocortin receptor 4 (Mus musculus, UniProt P56450); experiment: In vitro activation of mouse recombinant Melanocortin-4 receptor.
Sequence (P56450 whole entry): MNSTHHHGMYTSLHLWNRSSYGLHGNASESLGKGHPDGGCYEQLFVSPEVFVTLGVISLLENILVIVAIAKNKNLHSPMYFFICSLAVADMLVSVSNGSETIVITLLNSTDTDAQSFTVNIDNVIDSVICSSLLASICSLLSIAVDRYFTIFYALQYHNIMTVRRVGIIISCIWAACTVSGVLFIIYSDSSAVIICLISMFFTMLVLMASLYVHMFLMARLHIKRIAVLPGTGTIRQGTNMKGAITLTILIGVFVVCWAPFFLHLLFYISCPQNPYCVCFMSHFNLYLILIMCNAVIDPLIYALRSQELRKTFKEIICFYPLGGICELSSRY
pEC50: −log10 of the molar value. Where a SMILES comes first, the peptide text is derived from it. [ ]: non-standard residue; d: D form. Tic = O=C(O)[C@@H]1Cc2ccccc2CN1
observationType: pEC50

Worked examples, 2 compounds total:
compound	pEC50
CC(=O)N[C@@H](Cc1c[nH]c2ccccc12)C(=O)N[C@H](Cc1ccccc1)C(=O)N[C@@H](CCCN=C(N)N)C(=O)N[C@@H](Cc1c[nH]c2ccccc12)C(N)=O	6.28
CC(=O)N[C@@H](Cc1ccncc1)C(=O)N[C@H](Cc1ccccc1)C(=O)N[C@@H](CCCN=C(N)N)C(=O)N[C@@H](Cc1c[nH]c2ccccc12)C(N)=O	6.89

(A) CC(=O)N[C@@H](Cc1csc2ccccc12)C(=O)N[C@H](Cc1ccccc1)C(=O)N[C@@H](CCCN=C(N)N)C(=O)N[C@@H](Cc1c[nH]c2ccccc12)C(N)=O
(B) CC(=O)N1Cc2ccccc2C[C@H]1C(=O)N[C@H](Cc1ccccc1)C(=O)N[C@@H](CCCNC(=N)N)C(=O)N[C@@H](Cc1c[nH]c2ccccc12)C(N)=O (Ac-[Tic][dF]RW-NH2)
Please state the entry with greater pEC50 among A and B . Write the label of whichever entry you select.
A
(A: 6.68, B: 5.54)

----------
biological target: Melanocortin receptor 3 (Mus musculus); assay: In vitro activation of mouse recombinant Melanocortin-3 receptor.
pEC50: −log10 of the molar value. Where a SMILES comes first, the peptide text is derived from it. [ ]: non-standard residue; d: D form. Tic = O=C(O)[C@@H]1Cc2ccccc2CN1
observationType: pEC50

Consider the reported pEC50 for these compounds:
compound	pEC50
CC(=O)N1Cc2ccccc2C[C@H]1C(=O)N[C@H](Cc1ccccc1)C(=O)N[C@@H](CCCNC(=N)N)C(=O)N[C@@H](Cc1c[nH]c2ccccc12)C(N)=O (Ac-[Tic][dF]RW-NH2)	4.93
CC(=O)N[C@@H](C)C(=O)N[C@H](Cc1ccccc1)C(=O)N[C@@H](CCCN=C(N)N)C(=O)N[C@@H](Cc1c[nH]c2ccccc12)C(N)=O	5.05

(I) CC(=O)N[C@@H](Cc1c[nH]c2ccccc12)C(=O)N[C@H](Cc1ccccc1)C(=O)N[C@@H](CCCN=C(N)N)C(=O)N[C@@H](Cc1c[nH]c2ccccc12)C(N)=O
(II) CC(=O)N[C@@H](Cc1csc2ccccc12)C(=O)N[C@H](Cc1ccccc1)C(=O)N[C@@H](CCCN=C(N)N)C(=O)N[C@@H](Cc1c[nH]c2ccccc12)C(N)=O
Between I and II , whose recorded pEC50 is greater? In your reply, give the label of the chosen option.
I
(I: 4.99, II: 4.70)

----------
molecular target: Melanocortin receptor 3 (Mus musculus, UniProt P33033); experiment: In vitro activation of mouse recombinant Melanocortin-3 receptor.
Sequence (P33033 whole entry): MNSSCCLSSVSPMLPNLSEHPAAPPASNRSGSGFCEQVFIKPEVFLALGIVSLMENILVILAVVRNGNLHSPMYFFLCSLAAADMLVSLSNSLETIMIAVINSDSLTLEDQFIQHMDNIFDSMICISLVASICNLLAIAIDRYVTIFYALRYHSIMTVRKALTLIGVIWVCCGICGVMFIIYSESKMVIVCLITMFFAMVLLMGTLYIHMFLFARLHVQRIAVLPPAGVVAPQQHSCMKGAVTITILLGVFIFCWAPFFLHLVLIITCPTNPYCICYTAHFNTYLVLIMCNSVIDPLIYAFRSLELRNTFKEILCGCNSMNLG
Where a SMILES comes first, the peptide text is derived from it. [ ]: non-standard residue; d: D form. 2Thi = N[C@@H](Cc1cccs1)C(=O)O
observationType: EC50 (µM)

Consider the following illustrative entries.
molecule	observationType	observedValue
CC(=O)N[C@@H](Cc1ccc2ccccc2c1)C(=O)N[C@H](Cc1ccccc1)C(=O)N[C@@H](CCCN=C(N)N)C(=O)N[C@@H](Cc1c[nH]c2ccccc12)C(N)=O	EC50	14.7
CC(=O)N[C@@H](Cc1ccccc1)C(=O)N[C@H](Cc1ccccc1)C(=O)N[C@@H](CCCNC(=N)N)C(=O)N[C@@H](Cc1c[nH]c2ccccc12)C(N)=O	EC50	11.9
CC(=O)N[C@@H](Cc1cccs1)C(=O)N[C@H](Cc1ccccc1)C(=O)N[C@@H](CCCNC(=N)N)C(=O)N[C@@H](Cc1c[nH]c2ccccc12)C(N)=O (Ac-[2Thi][dF]RW-NH2)	EC50	2.95

(P) CC(=O)N[C@@H](Cc1ccncc1)C(=O)N[C@H](Cc1ccccc1)C(=O)N[C@@H](CCCN=C(N)N)C(=O)N[C@@H](Cc1c[nH]c2ccccc12)C(N)=O
(Q) CC(=O)N1CCC[C@H]1C(=O)N[C@H](Cc1ccccc1)C(=O)N[C@@H](CCCN=C(N)N)C(=O)N[C@@H](Cc1c[nH]c2ccccc12)C(N)=O (Ac-P[dF]RW-NH2)
// which entry reports the smaller EC50, P or Q ? Reply briefly: the label of your chosen item.
P
(P: 2.27 µM, Q: 15 µM)

----------
target: Melanocortin receptor 5 (Mus musculus, UniProt P41149); assay: In vitro activation of mouse recombinant Melanocortin-5 receptor.
observationType: EC50 (µM)

molecule	unitOfMeasurement	observedValue
CC(=O)NC1(C(=O)N[C@H](Cc2ccccc2)C(=O)N[C@@H](CCCNC(=N)N)C(=O)N[C@@H](Cc2c[nH]c3ccccc23)C(N)=O)CCc2ccccc2C1 (stereo partly drawn)	µM	2.4

(a) CC(=O)N[C@H](Cc1ccc2ccccc2c1)C(=O)N[C@H](Cc1ccccc1)C(=O)N[C@@H](CCCNC(=N)N)C(=O)N[C@@H](Cc1c[nH]c2ccccc12)C(N)=O
(b) CC(=O)N[C@@H](Cc1ccc2ccccc2c1)C(=O)N[C@H](Cc1ccccc1)C(=O)N[C@@H](CCCN=C(N)N)C(=O)N[C@@H](Cc1c[nH]c2ccccc12)C(N)=O
Compare the recorded EC50 of a and b ; state which is larger. // caller expects the label of the chosen entry
a
